# measurement_target: T1, ferroportin tagged at the C-terminus with green fluorescent protein (ECR293/Fpn-GFP cells)
# T1 sequence (Q9NP59 whole entry, species assumed, looked up): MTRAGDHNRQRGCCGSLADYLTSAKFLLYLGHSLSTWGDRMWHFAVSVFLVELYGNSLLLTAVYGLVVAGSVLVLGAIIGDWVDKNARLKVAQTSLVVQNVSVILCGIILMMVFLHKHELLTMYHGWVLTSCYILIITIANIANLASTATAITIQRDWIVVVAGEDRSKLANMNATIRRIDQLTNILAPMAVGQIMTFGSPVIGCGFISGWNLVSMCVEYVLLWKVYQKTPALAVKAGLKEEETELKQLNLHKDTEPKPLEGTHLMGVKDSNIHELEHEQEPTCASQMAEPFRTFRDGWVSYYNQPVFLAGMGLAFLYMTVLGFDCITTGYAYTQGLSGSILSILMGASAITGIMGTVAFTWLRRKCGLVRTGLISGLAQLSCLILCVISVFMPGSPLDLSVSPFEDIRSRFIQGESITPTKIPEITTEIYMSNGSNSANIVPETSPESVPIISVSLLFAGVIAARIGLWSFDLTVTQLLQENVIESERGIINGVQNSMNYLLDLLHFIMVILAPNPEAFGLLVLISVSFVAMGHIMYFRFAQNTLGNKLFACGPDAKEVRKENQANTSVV
# method_summary: cell-based or functional assay
For each record, write down the corresponding EC50 (nM); loss of fluorescence of Fpn-GFP cells, flow cytometry.
Give a bare numeral; the unit nM is implied.

I am curious: what EC50 (nM); loss of fluorescence of Fpn-GFP cells, flow cytometry value has been reported for FICIPFHTD (retroinverted: all D-amino acids; C-terminal amide) [Pr12] ?
900

Entry FICIPFHTD (N-terminal R4 = Palmitoyl-(PEG11)-; retroinverted (D-amino acids); C-terminal amide) [Pr27] : reported EC50 (nM); loss of fluorescence of Fpn-GFP cells, flow cytometry = ?
20

Sample FICIPFHTD (N-terminal R2 = Chenodeoxycholate-(PEG11)-; retroinverted (D-amino acids); C-terminal amide) [Pr23] — what was its EC50 (nM); loss of fluorescence of Fpn-GFP cells, flow cytometry?
100

Origin of values: patent US20120040894A1
